The reported measurements were obtained from patent US20190359693A1.

VNA IC50: recorded values
Biological target: hemagglutinin (HA) of influenza B/Brisbane/60/08 (Victoria) (influenza B virus)
Assay: cell-based or functional assay

BINDER	SIGN_QUALIFIER	VNA IC50 [nM]
SD3056 (VHH) VHH: EVQLVESGGGLVQPGGSLRLSCAASGLSLDTYAMSWFRQAPGKEREGITCISSGHGFTYYADSVKGRFTISRDNSKNTLYLQMNSLQPEDTARYYCATESRYYCSDNWPAPQRYIYWGQGTQVTVSS	>	1000
SD3012 (VHH) VHH: EVQLLESGGGLVQPGGSLRLSCAASGFTLENKAIGWFRQAPGKEREGVLCISKSGSWTYYADSVKGRFTISRDNSKNTVYLQMNSLRPEDTAVYYCATTTAGGGLCWDGTTFSRLASSWGQGTQVTVSS	=	59
